- Procedure Text: amyloid nucleation score (Sup35N fusion, yeast selection) (log enrichment); library NNK3; higher = more nucleation; inactive = no reads after selection;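 note: zero at mode of non-aggregating sequences after 7 days selection at 30°C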
Readout: amyloid nucleation score

record_sequence=SGEYSQRKGSCKGHNGSSRS result=inactive
record_sequence=RVIKVGHMFKWSRAVGGGKT result=-0.514
record_sequence=LPGNVFDVPLFNLDVYWVTR result=inactive
record_sequence=LHRLRKWRRLY result=inactive
record_sequence=FSSMVNVYSLLKVFF result=inactive
record_sequence=RNKHYVGRQSVSDSRVLSIV result=inactive
record_sequence=SLGNYHTLGMVFRLA result=-0.093

Turning to the following sequence.
Any idea what amyloid nucleation score was measured for SFNSVDTRLWTVPRWERMVN ?
inactive

----------
- Procedure Text: amyloid nucleation score (Sup35N fusion, yeast selection) (log enrichment); library NNK1; higher = more nucleation; inactive = no reads after selection
Please enter yes where amyloid nucleation score is greater than or equal to -0.5, and no where it is lower.

Illustrative cases are given below, each with its answer.
record_sequence=IWSSVQEFLGCMFWVIRINH class=yes
record_sequence=NWSCTYRMVVS class=no
record_sequence=NLGYDCGLGAMSGWMRWLIS class=yes
record_sequence=CYCWPTTKKIPFKSL class=no
record_sequence=FRLARGVVWCPGGISC class=no
record_sequence=LVIALSQTDAYGELVSRNMC class=yes

Is it the case that ELGTVFGLTYYTMTDYVPMT has amyloid nucleation score reaching or exceeding -0.5?
yes

----------
- Procedure Text: amyloid nucleation score (Sup35N fusion, yeast selection) (log enrichment); library NNK1; higher = more nucleation; inactive = no reads after selection
Readout: amyloid nucleation score

record_sequence=DLHWILNHTNGACFQWGQPA result=inactive
record_sequence=VFNTGYRVSRILDLGYKFNM result=inactive
record_sequence=LLYRMKVFADVGGDVLKSEG result=inactive
record_sequence=YSGVLFSTAVEYGGRGLVHE result=inactive

----------
- Procedure Text: amyloid nucleation score (Sup35N fusion, yeast selection) (log enrichment); library NNK1; higher = more nucleation; inactive = no reads after selection
Assign amyloid nucleation score to each entry below.
One number for each entry.

Solved entries (count: 6):
substance=TYSKSVCWAHHHSYTGVCLT numeric_result=0.127
substance=HYMMADLGFWQYP numeric_result=0.138
substance=TYYGVSPDTASNAACLYPRH numeric_result=-0.746
substance=CRLFYSWNVNMYRNMLLRWI numeric_result=-0.767
substance=HNSLWGYFFMF numeric_result=3.19
substance=NGMSSFRCLYMWARTFPVSN numeric_result=-0.424

Okay, here is my list. What is amyloid nucleation score for each of these?
1. KFFHLAIMWFTPSSPHKGTC
2. EINCHSSMGFMRWPPRSGNG
3. YTFQIILNSVPWYFCAMLWE
4. QRRHYTWMLIRKRSSLHKAR
5. ILWFYYTLGACFCWLYINYK
6. CGIDKSDRIMLIKTVQLSVQ

1: -0.496; 2: -0.962; 3: 5.54; 4: -0.462; 5: 0.26; 6: 0.09

----------
- Procedure Text: amyloid nucleation score (Sup35N fusion, yeast selection) (log enrichment); library NNK2; higher = more nucleation; inactive = no reads after selection
Please enter criterion met where amyloid nucleation score is greater than or equal to 0.8, and criterion not met where it is lower.

Illustrative cases are given below, each with its answer.
substance=KHIFFLREVVNYFMRRTKGL class="criterion not met"
substance=VLPMVRMSINIVVGCWSQKL class="criterion met"
substance=YNMMLSVWDSYVLLVECVME class="criterion not met"

Is it the case that RPSNKT has amyloid nucleation score reaching or exceeding 0.8?
criterion not met

Is it the case that NAPLCFKHKSRL has amyloid nucleation score reaching or exceeding 0.8?
criterion not met

Is it the case that LHMCHWDSYSE has amyloid nucleation score reaching or exceeding 0.8?
criterion met

Is it the case that NEHYGRTMTN has amyloid nucleation score reaching or exceeding 0.8?
criterion not met

Is it the case that TSYKVVLVTYRT has amyloid nucleation score reaching or exceeding 0.8?
criterion met

Value source: the supplement of paper PMC12042874
